# target: hSULT1A2 (Homo sapiens, UniProt P50226)
# Construct: 6-histidine tag (N); TEV site (N)
# Sequence (P50226 whole entry): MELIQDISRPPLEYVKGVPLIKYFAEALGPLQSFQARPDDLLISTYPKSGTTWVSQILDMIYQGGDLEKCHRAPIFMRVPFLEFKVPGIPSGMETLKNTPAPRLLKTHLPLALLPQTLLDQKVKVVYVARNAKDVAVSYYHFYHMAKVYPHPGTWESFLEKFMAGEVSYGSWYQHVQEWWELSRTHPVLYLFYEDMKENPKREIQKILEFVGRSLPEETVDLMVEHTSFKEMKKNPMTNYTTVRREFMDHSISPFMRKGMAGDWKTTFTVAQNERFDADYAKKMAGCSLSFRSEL
# protocol.notes: Fluorescence-based microplate inhibition assay, hSULT1A2-catalyzed HN-241 4-O-sulfation
# test.conditions: hSULT1A2-catalyzed HN-241 4-O-sulfation
pIC50: −log10 of the molar value.
Kindly return label 1 if reported pIC50 is no lower than 7; return label 0 if it is lower.

See these solved cases before continuing.
In [3]: df
Out[3]:
                                   compound  assigned_class
0  COc1c(O)cc2c(c1O)C(=O)c1c(cc(C)c(O)c1OC)C2=O [Aurantio-obtusin]         label 0
1  COc1ccc(-c2cc(=O)c3c(O)cc(O)cc3o2)cc1-c1c(O)cc(O)c2c(=O)cc(-c3ccc(O)cc3)oc12 [Bilobetin]         label 1

Tell me whether pIC50 is at least 7 here: Cc1cc(O)c2c(c1)C(=O)c1cc(O)cc(O)c1C2=O [Emodin] label 0

Where these numbers come from: paper PMC11202169
